# assay details: qHTS for Inhibitors of TGF-b: Cytotox Counterscreen
# test conditions: HepG2 CAGA-GFP viability, ATP luminescence, 18 h; series mostly up to 46.1 µM
The whole screen tested about 410,000 compounds, of which about 3,100 (0.76%) were called active. The call rests on the fitted dose curve; in most records, active means well fitted cell-killing curve with a large enough effect; inactive means no such curve, though single readings can be large or run the other way. This is one part of a sample in which actives are shown more often than they occur.
Labels: active, inactive

>>> df
                                    compound  category
 0  COc1ccc(C(=O)COC(=O)C(O)c2ccccc2)c(OC)c1 (stereo not drawn)  inactive
 1             CCCCN1C(N)=NC[C@@H]1CC1CCCCC1  inactive
 2  COc1ccc(C(=O)NCC(=O)N/N=C/c2ccc([N+](=O)[O-])s2)cc1OC    active
 3                            Nc1ncnc2nnsc12  inactive
 4  CCc1ccc(C(CNc2nc(C(F)(F)F)nc3ccccc23)N(C)C)cc1 (stereo not drawn)    active
 5                  CCN(CC)c1nc(C#N)nc(OC)n1  inactive
 6  Cc1c(NC(=O)Nc2ccc(F)c(Cl)c2)c(=O)n(-c2ccccc2)n1C  inactive
 7  CCC(C)Nc1oc(-c2ccc(COc3ccc(Cl)cc3)o2)nc1C#N (stereo not drawn)  inactive
 8  O=C(Nc1ccc2c(c1)OCCO2)C(c1ccc(F)cc1)N1CCCCC1 (stereo not drawn)  inactive
 9  Cc1ccccc1NCC(=O)N/N=C\c1ccc([N+](=O)[O-])s1    active
10  CN(C)c1ccc(/C=C/c2c3ccccc3nc3ccccc23)cc1  inactive
11  CCOC(=O)[C@H]1[C@H]2COc3cc(OC)ccc3[C@@H]2N2C(=O)N(c3ccc(Br)cc3)C(=O)[C@@]12C  inactive
12  O=C(Nc1ccc2c(c1)OCCO2)C(C1CC1)N1CCC(Cc2ccccc2)CC1 (stereo not drawn)    active
13         Cc1cccc2c1N(CCOc1ccccc1)C(=O)C2=O  inactive
14  COc1ccc(CN(C(=O)CSc2nnc(-c3ccc(OC)c(OC)c3)o2)c2ccc(F)cc2)cc1  inactive
15  CCCC[C@@H]1CN=C(N)N1CCc1cc(C(F)(F)F)cc(C(F)(F)F)c1    active
16  CCOc1ccc(Nc2c(S(=O)(=O)c3ccccc3)cnc3ccccc23)cc1  inactive
17  COc1cc2nc(C#Cc3nc4cc(OC)c(OC)cc4[nH]3)[nH]c2cc1OC  inactive
18  COc1ccc(C)cc1NC(=O)CCS(=O)(=O)c1cccc2nonc12  inactive
19  O=C(CCS(=O)(=O)c1ccccc1)N(Cc1cccnc1)c1nc2c(F)cccc2s1    active
20  CN(C)C1=NC[C@H](Cc2ccccc2)N1CCc1ccc(F)cc1  inactive
21  CCCCOc1ccc(CN2C(=O)C(=O)c3cc(Br)cc(C)c32)cc1OC    active
22  O=C(CSc1nc(Nc2ccc(F)c(F)c2)c2ccccc2n1)c1ccc(Cl)cc1  inactive
23         O=C(/C=C/Sc1ncn[nH]1)c1ccc(Cl)cc1    active
24  O=C(C1COc2ccccc2O1)N(Cc1cccnc1)c1nc2c(F)cc(F)cc2s1 (stereo not drawn)  inactive
25  CCn1c(SCC(=O)N/N=C/C=C/c2ccccc2[N+](=O)[O-])nnc1-c1ccccc1  inactive
26     Cc1ccsc1/C=N/NC(=O)Cc1cc(=O)[nH][nH]1  inactive
27     COc1cc(NC(=O)CCn2nc(C)cc2C)cc(OC)c1OC  inactive
28  CCOC(=O)c1ccc(NC(=O)CC2C(=O)N(c3ccccc3)C(=O)N2Cc2cccs2)cc1 (stereo not drawn)  inactive
29  COc1ccc(-c2nc(CN3CCC(C(=O)NCc4ccccc4)CC3)c(C)o2)cc1OC  inactive
30  Cc1cc(O)ccc1-c1cc(C(=O)NCc2cc(C(F)(F)F)cc(C(F)(F)F)c2)[nH]n1    active
31  CN(C)S(=O)(=O)c1ccc(C(=O)N(Cc2cccnc2)c2nc3c(F)cc(F)cc3s2)cc1  inactive
32   CCc1ccc(CN(Cc2ccco2)C(=O)c2ccccc2Cl)cc1  inactive
33  Cc1ccc(CNC(=O)CCc2c(C)nc3c(c(C)nn3-c3ccccc3)c2C)cc1  inactive
34             O=C(Cc1ccc(Br)cc1)NCCN1CCOCC1  inactive
35  Cc1cccc2sc(N(CCCN(C)C)C(=O)CCS(=O)(=O)c3ccccc3)nc12    active
36         c1ccc2cc3c(NCCN4CCOCC4)ccnc3cc2c1    active
37  COc1ccc(-c2nnc(SC(=O)N3c4ccccc4Sc4ccccc43)o2)cc1    active
38  FC(F)(F)c1cc(Nc2nc3ccccc3c3nncn23)ccc1Cl  inactive
39  CCOc1ccc(N(Cc2ccccc2)C(=O)c2nc(SCC)ncc2Cl)cc1  inactive
40  COCCCn1c(=O)/c(=C/c2ccccc2OC(C)C)s/c1=C(\C#N)C(=O)Nc1ccc(C(=O)O)cc1    active
41                  NC1=CC(=O)C(=O)c2cccnc21    active
42  COc1ccc(-c2cc(C(=O)NCc3cc(OC)c(OC)c(OC)c3)[nH]n2)cc1  inactive
